The origin of these recorded values is patent US8192962B2.

level of expressed mRNA in the presence/in the absence of chemical substance overview
# Test system: Metabolism protein genes
# assayRemarks: DNA chip mRNA expression in yeast, metabolism protein genes (Table 7)
# Format: cell-based, Saccharomyces cerevisiae S288C
# testConditions: yeast gene YJR143C
measure: level of expressed mRNA in the presence/in the absence of chemical substance

- [Cl][Cd][Cl]: 0.6
- N#Cc1c(Cl)c(Cl)c(Cl)c(C#N)c1Cl: 0.1
- CCCCCCCCCCCCc1ccc(S(=O)(=O)[O-])cc1.[Na+] [(17), sodium dodecylbenzosulfonate]: 0.7
- CN(C)C(=S)SSC(=S)N(C)C [(10), Tetramethylthiuram disulfide]: 0.3

---

Quick reference for level of expressed mRNA in the presence/in the absence of chemical substance among some compounds
# Tested on: Metabolism protein genes
# assayRemarks: DNA chip mRNA expression in yeast, metabolism protein genes (Table 7)
# Assay type: cell-based, Saccharomyces cerevisiae S288C
# testConditions: yeast gene YNL025C
measure: level of expressed mRNA in the presence/in the absence of chemical substance

* N#Cc1c(Cl)c(Cl)c(Cl)c(C#N)c1Cl | 1.1
* O=[N+]([O-])c1cc[n+]([O-])c2ccccc12 [(5), 4-nitroquinolin-N-oxide] | 0.7
* [Cl][Pb][Cl] | 12.8
* CCCCC[C@H](O)CC(=O)CCc1ccc(O)c(OC)c1 | 1.3
* C=CC=O | 1.2
* Cl[C@H]1[C@H](Cl)[C@@H](Cl)[C@@H](Cl)[C@H](Cl)[C@H]1Cl | 1.2

---

# System: Metabolism protein genes
# assayRemarks: DNA chip mRNA expression in yeast, metabolism protein genes (Table 7)
# Format: cell-based, Saccharomyces cerevisiae S288C
# testConditions: yeast gene YPL057C
// reported level of expressed mRNA in the presence/in the absence of chemical substance per item
measure: level of expressed mRNA in the presence/in the absence of chemical substance

* Oc1cc(Cl)c(Cl)cc1Cl [(6), 2,4,5-trichlorophenol] | 0.6
* [Cl][Cd][Cl] [(2), CdCl2] | 1.1
* Cl[C@H]1[C@H](Cl)[C@@H](Cl)[C@@H](Cl)[C@H](Cl)[C@H]1Cl [(7), γ-hexachlorocyclohexane] | 0.6
* CN(C)C(=S)SSC(=S)N(C)C [(10), Tetramethylthiuram disulfide] | 1.4
* CCCCCCCCCCCCc1ccc(S(=O)(=O)[O-])cc1.[Na+] [(17), sodium dodecylbenzosulfonate] | 2.2
* C[S+](C)[O-] [(15), dimethylsulfoxide] | 1.1
* CCCCC[C@H](O)CC(=O)CCc1ccc(O)c(OC)c1 [(13), gingerol] | 1.3

---

# Tested on: Metabolism protein genes
# assayRemarks: DNA chip mRNA expression in yeast, metabolism protein genes (Table 7)
# Type: cell-based, Saccharomyces cerevisiae S288C
# testConditions: yeast gene YPR183W
This listing pairs molecules with measured level of expressed mRNA in the presence/in the absence of chemical substance.
measure: level of expressed mRNA in the presence/in the absence of chemical substance

* [Cl][Pb][Cl] | 0.8
* C[S+](C)[O-] [(15), dimethylsulfoxide] | 0.9
* N#Cc1c(Cl)c(Cl)c(Cl)c(C#N)c1Cl | 0.9
* COc1cc(CNC(=O)CCCCC=CC(C)C)ccc1O [(12), 8-methyl-N-vanillyl-6-nonenamide] | 1.2
* [Cl][Cd][Cl] | 1.5
